% blocked at maximum Ab tested (20 nM) for assorted binders
- assayedTarget: T1, human GREM1 (hGREM1-His; SEQ ID NO: 595) (human, UniProt O60565 25-184)
- T1 construct: also called biotin-hGREM1-His; recombinant human GREM1 protein
- T1 sequence: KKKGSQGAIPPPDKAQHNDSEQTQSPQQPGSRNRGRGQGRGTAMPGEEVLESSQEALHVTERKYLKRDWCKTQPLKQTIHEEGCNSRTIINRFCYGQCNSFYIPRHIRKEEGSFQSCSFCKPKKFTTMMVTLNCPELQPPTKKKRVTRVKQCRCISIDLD
- test: competition ELISA, biotin-hGREM1-His (100 pM) binding to coated hBMP4
Record the value in %, omitting the unit from your answer.

>  <binder>
H4H2892N (antibody, human IgG4, V domains shown, H4H prefix = human IgG4 Fc) VH: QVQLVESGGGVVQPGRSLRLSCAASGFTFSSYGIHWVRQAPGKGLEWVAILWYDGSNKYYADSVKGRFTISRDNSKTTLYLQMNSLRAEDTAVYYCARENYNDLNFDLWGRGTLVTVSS VL: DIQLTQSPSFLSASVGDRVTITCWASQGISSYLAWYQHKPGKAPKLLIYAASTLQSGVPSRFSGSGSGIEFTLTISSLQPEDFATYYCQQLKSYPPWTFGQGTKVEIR

>  <valueType>
% blocked at maximum Ab tested (20 nM)

>  <measurement>
82

$$$$
>  <binder>
H4H6269P (antibody, human IgG4, V domains shown, H4H prefix = human IgG4 Fc) VH: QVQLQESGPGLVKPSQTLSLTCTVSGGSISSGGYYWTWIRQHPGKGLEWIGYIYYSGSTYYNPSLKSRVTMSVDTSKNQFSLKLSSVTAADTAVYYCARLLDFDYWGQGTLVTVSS VL: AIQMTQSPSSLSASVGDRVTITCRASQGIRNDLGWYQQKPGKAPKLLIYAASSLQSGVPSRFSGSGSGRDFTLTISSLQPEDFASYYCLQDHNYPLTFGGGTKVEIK

>  <valueType>
% blocked at maximum Ab tested (20 nM)

>  <measurement>
73

$$$$
>  <binder>
H4H6251P (antibody, human IgG4, V domains shown, H4H prefix = human IgG4 Fc) VH: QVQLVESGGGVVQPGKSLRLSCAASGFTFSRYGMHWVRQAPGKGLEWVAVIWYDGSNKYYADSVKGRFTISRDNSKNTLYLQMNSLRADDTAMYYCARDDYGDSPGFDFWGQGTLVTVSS VL: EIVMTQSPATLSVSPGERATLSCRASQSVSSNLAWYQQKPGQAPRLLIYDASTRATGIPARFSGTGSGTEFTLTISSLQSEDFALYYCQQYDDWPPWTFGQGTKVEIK

>  <valueType>
% blocked at maximum Ab tested (20 nM)

>  <measurement>
62

$$$$
>  <binder>
H4H6246P (antibody, human IgG4, V domains shown, H4H prefix = human IgG4 Fc) VH: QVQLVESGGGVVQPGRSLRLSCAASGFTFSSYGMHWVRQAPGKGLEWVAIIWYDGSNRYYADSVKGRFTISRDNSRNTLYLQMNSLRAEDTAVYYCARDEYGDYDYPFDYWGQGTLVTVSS VL: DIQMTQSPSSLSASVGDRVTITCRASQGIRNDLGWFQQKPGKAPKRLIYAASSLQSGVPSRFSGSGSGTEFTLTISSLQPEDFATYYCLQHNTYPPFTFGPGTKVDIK

>  <valueType>
% blocked at maximum Ab tested (20 nM)

>  <measurement>
62

$$$$
>  <binder>
H4H2783N2 (antibody, human IgG4, V domains shown, H4H prefix = human IgG4 Fc) VH: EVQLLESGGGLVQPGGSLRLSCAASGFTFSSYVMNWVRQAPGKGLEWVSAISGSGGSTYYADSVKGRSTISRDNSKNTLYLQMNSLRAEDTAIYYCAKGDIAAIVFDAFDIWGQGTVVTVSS VL: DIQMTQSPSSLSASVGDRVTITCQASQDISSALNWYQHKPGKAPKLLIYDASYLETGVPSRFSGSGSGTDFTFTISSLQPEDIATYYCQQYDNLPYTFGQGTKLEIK

>  <valueType>
% blocked at maximum Ab tested (20 nM)

>  <measurement>
76

$$$$
>  <binder>
H4H6250P (antibody, human IgG4, V domains shown, H4H prefix = human IgG4 Fc) VH: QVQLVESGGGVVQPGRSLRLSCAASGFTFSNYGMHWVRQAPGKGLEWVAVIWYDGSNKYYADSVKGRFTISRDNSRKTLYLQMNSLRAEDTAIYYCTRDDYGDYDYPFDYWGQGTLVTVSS VL: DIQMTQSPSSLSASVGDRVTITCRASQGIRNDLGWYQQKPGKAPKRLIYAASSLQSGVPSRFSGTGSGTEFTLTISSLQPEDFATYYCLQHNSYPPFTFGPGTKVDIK

>  <valueType>
% blocked at maximum Ab tested (20 nM)

>  <measurement>
42

$$$$

Item H4H6256P (antibody, human IgG4, V domains shown, H4H prefix = human IgG4 Fc) VH: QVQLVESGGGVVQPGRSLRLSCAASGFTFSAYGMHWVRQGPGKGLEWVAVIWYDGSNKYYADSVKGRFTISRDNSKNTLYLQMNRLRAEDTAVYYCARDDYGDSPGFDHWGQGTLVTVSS VL: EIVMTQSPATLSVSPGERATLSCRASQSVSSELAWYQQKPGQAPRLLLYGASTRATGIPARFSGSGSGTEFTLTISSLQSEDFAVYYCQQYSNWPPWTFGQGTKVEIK has what recorded % blocked at maximum Ab tested (20 nM)? 75

Fill blank: measured % blocked at maximum Ab tested (20 nM) of the binder H4H6240P (antibody, human IgG4, V domains shown, H4H prefix = human IgG4 Fc) VH: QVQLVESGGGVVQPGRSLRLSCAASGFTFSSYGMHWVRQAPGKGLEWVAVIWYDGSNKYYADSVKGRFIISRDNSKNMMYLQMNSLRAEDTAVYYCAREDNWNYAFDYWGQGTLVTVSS VL: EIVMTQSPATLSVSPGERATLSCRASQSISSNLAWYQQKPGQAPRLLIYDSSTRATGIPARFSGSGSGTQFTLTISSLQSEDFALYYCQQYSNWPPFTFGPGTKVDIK is ____. 60

Name the recorded % blocked at maximum Ab tested (20 nM) for H4H2780N (antibody, human IgG4, V domains shown, H4H prefix = human IgG4 Fc) VH: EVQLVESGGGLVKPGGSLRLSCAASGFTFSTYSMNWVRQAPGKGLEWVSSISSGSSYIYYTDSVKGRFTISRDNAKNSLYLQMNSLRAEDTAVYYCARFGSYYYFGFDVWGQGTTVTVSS VL: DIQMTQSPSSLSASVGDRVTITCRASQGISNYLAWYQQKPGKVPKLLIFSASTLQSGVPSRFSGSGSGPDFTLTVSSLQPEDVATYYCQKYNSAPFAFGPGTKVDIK . 69
